Measured IC50, listed per entry for reference.
Target: recombinant human MER (Homo sapiens, UniProt Q12866)
Sequence (Q12866 21-999): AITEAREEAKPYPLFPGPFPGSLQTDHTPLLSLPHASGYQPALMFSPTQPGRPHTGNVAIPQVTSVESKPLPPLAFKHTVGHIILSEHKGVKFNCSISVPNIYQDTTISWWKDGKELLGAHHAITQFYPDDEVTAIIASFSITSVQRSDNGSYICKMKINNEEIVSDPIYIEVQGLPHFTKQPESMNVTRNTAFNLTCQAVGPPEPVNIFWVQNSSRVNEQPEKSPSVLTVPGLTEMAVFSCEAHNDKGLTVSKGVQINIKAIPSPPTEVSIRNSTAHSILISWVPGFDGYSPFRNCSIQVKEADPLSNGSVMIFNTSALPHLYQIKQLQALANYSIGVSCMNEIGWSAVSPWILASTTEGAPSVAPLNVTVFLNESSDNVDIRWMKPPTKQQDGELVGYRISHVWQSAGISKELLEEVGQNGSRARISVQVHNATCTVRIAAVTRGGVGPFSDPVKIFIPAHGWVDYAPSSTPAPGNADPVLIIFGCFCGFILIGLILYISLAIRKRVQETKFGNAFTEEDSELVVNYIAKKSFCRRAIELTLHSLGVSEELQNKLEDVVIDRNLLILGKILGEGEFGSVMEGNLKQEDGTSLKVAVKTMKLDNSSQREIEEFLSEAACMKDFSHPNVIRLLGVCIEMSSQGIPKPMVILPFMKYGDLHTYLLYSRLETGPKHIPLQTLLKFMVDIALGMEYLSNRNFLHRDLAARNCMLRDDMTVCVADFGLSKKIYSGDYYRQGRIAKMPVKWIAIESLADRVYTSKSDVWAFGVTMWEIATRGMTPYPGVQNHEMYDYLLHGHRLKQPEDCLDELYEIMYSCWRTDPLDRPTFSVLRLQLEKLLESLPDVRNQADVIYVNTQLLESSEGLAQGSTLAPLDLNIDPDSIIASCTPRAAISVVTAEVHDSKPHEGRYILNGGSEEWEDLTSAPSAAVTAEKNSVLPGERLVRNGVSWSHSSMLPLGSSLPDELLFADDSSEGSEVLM
Assay: Biochemical potency, HTRF KinEASE-TK kinase assay
Details: 1 nM MER, 700 μM ATP

Use the examples below as a reference point.
[
  {
    "COMPOUND": "FC(F)(F)c1cccnc1-c1ccc(-c2n[nH]c3ncc(-c4ccc5c(c4)CC[C@@H](N4C6COCC4C6)CC5)cc23)cc1 [Example 88]",
    "IC50": "100 to 1000 nM"
  },
  {
    "COMPOUND": "Cc1nncn1-c1ccc(-c2n[nH]c3ncc(-c4ccc5c(c4)CC[C@@H](N4C6COCC4C6)CC5)cc23)cc1 [Example 11]",
    "IC50": "> 1000 nM"
  },
  {
    "COMPOUND": "c1ccc(-c2ccc(-c3c[nH]c4ncc(-c5ccc6c(c5)CC[C@@H](N5C7COCC5C7)CC6)cc34)cc2)nc1 [Example 155]",
    "IC50": "> 1000 nM"
  },
  {
    "COMPOUND": "Cc1cnc(C)c(-c2ccc(-c3c[nH]c4ncc(-c5ccc6c(c5)CC[C@@H](N5C7COCC5C7)CC6)cc34)cc2)n1 [Example 53]",
    "IC50": "100 to 1000 nM"
  }
]

Request: Which value of IC50 has been reported for CCc1cccnc1-c1ccc(-c2n[nH]c3ncc(-c4ccc5c(c4)CC[C@@H](N4C6COCC4C6)CC5)cc23)cc1 [Example 182] in the records?
Result: 100 to 1000 nM

====

Target: Axl (Homo sapiens)
Sequence (P30530 26-894): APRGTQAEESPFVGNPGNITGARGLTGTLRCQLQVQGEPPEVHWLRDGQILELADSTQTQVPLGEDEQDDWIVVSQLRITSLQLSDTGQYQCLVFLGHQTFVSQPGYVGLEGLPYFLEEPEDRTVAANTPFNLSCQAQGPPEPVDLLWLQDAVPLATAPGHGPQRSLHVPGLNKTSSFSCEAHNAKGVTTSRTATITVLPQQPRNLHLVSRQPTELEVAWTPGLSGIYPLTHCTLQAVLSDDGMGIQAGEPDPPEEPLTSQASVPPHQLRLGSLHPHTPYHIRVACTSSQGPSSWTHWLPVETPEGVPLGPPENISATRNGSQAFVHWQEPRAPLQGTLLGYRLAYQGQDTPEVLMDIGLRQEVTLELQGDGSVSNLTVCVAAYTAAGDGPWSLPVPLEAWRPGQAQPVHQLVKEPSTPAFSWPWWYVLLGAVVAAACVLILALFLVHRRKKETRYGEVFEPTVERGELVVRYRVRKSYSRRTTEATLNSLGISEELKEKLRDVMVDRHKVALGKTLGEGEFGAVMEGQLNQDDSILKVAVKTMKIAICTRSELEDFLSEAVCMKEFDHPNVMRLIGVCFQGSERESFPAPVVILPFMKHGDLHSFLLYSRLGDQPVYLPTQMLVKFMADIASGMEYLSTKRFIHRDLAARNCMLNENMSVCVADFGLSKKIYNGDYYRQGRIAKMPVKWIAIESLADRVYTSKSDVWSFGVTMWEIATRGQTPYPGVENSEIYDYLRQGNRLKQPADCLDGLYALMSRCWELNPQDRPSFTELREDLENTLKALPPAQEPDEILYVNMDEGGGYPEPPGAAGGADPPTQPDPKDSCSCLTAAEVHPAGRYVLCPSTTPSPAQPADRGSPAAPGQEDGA
Assay: Biochemical potency, HTRF KinEASE-TK kinase assay
Parameters: purchased Invitrogen
Details: 5 nM AXL, 700 μM ATP
READOUT LABEL: IC50

[
  {
    "COMPOUND": "Cc1cnc(C)c(-c2ccc(-c3c[nH]c4ncc(-c5ccc6c(c5)CC[C@@H](N5C7COCC5C7)CC6)cc34)nc2)n1 [Example 69]",
    "IC50": "< 100 nM"
  }
]

Request: Enter reported IC50 observed with Axl (Homo sapiens) for CN(C)C(=O)c1cccc(-c2ccc(-c3n[nH]c4ncc(-c5ccc6c(c5)CC[C@@H](N5C7COCC5C7)CC6)cc34)cc2)n1 [Example 94]
Result: < 100 nM

Request: Enter reported IC50 observed with Axl (Homo sapiens) for Cc1ccc(C)c(-c2ccc(-c3c[nH]c4ncc(-c5ccc6c(c5)CC[C@@H](N5CCCC5)CC6)cc34)cc2)n1 [Example 148]
Result: < 100 nM

====

Molecular target: recombinant human TYRO3 (Homo sapiens, UniProt Q06418)
Sequence (Q06418 41-890): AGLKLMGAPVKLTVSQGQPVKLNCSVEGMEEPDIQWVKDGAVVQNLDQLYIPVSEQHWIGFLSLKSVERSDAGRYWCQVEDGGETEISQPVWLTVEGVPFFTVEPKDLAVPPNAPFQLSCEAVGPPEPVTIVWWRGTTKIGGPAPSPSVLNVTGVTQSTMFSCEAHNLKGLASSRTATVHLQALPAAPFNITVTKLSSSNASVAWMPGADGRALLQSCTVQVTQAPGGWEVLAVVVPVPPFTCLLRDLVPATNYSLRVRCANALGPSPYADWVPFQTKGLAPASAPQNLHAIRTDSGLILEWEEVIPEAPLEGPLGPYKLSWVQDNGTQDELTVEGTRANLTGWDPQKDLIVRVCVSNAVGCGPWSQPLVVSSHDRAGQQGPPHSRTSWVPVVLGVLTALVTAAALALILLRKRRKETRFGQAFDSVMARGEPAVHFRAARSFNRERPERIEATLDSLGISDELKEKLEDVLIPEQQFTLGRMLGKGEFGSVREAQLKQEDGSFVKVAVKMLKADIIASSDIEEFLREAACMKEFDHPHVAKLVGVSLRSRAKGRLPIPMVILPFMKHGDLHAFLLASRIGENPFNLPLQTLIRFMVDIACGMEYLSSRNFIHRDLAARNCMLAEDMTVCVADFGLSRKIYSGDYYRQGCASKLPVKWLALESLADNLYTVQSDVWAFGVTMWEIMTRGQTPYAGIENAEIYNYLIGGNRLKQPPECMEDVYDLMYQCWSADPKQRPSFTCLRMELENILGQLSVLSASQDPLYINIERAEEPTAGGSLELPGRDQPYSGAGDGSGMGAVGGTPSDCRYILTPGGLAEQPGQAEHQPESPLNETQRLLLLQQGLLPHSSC
Test: Biochemical potency, HTRF KinEASE-TK kinase assay
Conditions: 1 nM TYRO3, 700 μM ATP
READOUT LABEL: IC50

Use the examples below as a reference point.
[
  {
    "SMI": "CC(C)(O)c1cccnc1-c1ccc(-c2n[nH]c3ncc(-c4ccc5c(c4)CC[C@@H](N4C6COCC4C6)CC5)cc23)cc1",
    "STUDY TARGET": "recombinant human TYRO3 (Homo sapiens, UniProt Q06418)",
    "READOUT LABEL": "IC50",
    "EXPERIMENTAL VALUE": "< 100 nM"
  },
  {
    "SMI": "Cc1cc(C)c(-c2ccc(-c3c[nH]c4ncc(-c5ccc6c(c5)CC[C@@H](N5C7COCC5C7)CC6)cc34)cc2)nn1",
    "STUDY TARGET": "recombinant human TYRO3 (Homo sapiens, UniProt Q06418)",
    "READOUT LABEL": "IC50",
    "EXPERIMENTAL VALUE": "100 to 1000 nM"
  },
  {
    "SMI": "O=C(c1cccnc1-c1ccc(-c2c[nH]c3ncc(-c4ccc5c(c4)CC[C@@H](N4C6COCC4C6)CC5)cc23)cc1)N1CCCC1",
    "STUDY TARGET": "recombinant human TYRO3 (Homo sapiens, UniProt Q06418)",
    "READOUT LABEL": "IC50",
    "EXPERIMENTAL VALUE": "100 to 1000 nM"
  },
  {
    "SMI": "Cc1cc(F)cnc1-c1ccc(-c2c[nH]c3ncc(-c4ccc5c(c4)CC[C@@H](N4C6COCC4C6)CC5)cc23)cc1",
    "STUDY TARGET": "recombinant human TYRO3 (Homo sapiens, UniProt Q06418)",
    "READOUT LABEL": "IC50",
    "EXPERIMENTAL VALUE": "100 to 1000 nM"
  },
  {
    "SMI": "c1cncc(-c2ccc(-c3n[nH]c4ncc(-c5ccc6c(c5)CC[C@@H](N5C7COCC5C7)CC6)cc34)cc2)c1",
    "STUDY TARGET": "recombinant human TYRO3 (Homo sapiens, UniProt Q06418)",
    "READOUT LABEL": "IC50",
    "EXPERIMENTAL VALUE": "> 1000 nM"
  }
]

Request: Which value of IC50 has been reported for `Cc1nccnc1-c1ccc(-c2c[nH]c3ncc(-c4ccc5c(c4)CC[C@@H](N4C6COCC4C6)CC5)cc23)cc1` in the records?
Result: 100 to 1000 nM

====

Target: Axl (Homo sapiens)
Test: Biochemical potency, HTRF KinEASE-TK kinase assay
Set-up: purchased Invitrogen
Conditions: 5 nM AXL, 700 μM ATP
Measured IC50, listed per entry for reference.

[
  {
    "SMI": "Cc1cccnc1-c1ccc(-c2c[nH]c3ncc(-c4ccc5c(c4)CC[C@@H](N4C6COCC4C6)CC5)cc23)c(F)c1",
    "IC50": "< 100 nM"
  },
  {
    "SMI": "Cc1ccc(C(C)(C)O)nc1-c1ccc(-c2c[nH]c3ncc(-c4ccc5c(c4)CC[C@@H](N4C6COCC4C6)CC5)cc23)cc1",
    "IC50": "< 100 nM"
  }
]

Request: Which value of IC50 has been reported for `Cn1ncnc1-c1ccc(-c2c[nH]c3ncc(-c4ccc5c(c4)CC[C@@H](N4C6COCC4C6)CC5)cc23)cc1` in the records?
Result: < 100 nM

====

Target: Axl (Homo sapiens, UniProt P30530)
Assay: Axl NanoBRET intracellular kinase assay (intracellular binding, K-5 tracer displacement)
Design: host or cells: HEK-293
Settings: HEK-293 cells transfected with Axl-NanoLuc, 0.35 μM K-5 NanoBRET tracer; read-out: Cell Binding AXL
pIC50: −log10 of the molar value.
Measured pIC50, listed per entry for reference.

Use the examples below as a reference point.
[
  {
    "SMI": "COc1cccnc1-c1ccc(-c2n[nH]c3ncc(-c4ccc5c(c4)CC[C@@H](N4C6COCC4C6)CC5)cc23)cc1",
    "pIC50": "> 7.00"
  },
  {
    "SMI": "CC(C)(O)c1cccnc1-c1ccc(-c2c[nH]c3ncc(-c4ccc5c(c4)CC[C@@H](N4C6COCC4C6)CC5)cc23)cc1",
    "pIC50": "> 7.00"
  }
]

Request: Which value of pIC50 has been reported for `Cc1cccnc1-c1ccc(-c2c[nH]c3ncc(-c4ccc5c(c4)CC[C@@H](N4CCCC4)CC5)cc23)cc1` in the records?
Result: > 7.00

Request: Which value of pIC50 has been reported for `Cn1nncc1-c1ccc(-c2n[nH]c3ncc(-c4ccc5c(c4)CC[C@@H](N4C6COCC4C6)CC5)cc23)cc1` in the records?
Result: > 7.00

Request: Which value of pIC50 has been reported for `Cc1cc(-c2n[nH]c3ncc(-c4ccc5c(c4)CC[C@@H](N4C6COCC4C6)CC5)cc23)ccc1-c1ccccn1` in the records?
Result: 6.00 to 7.00

Request: Which value of pIC50 has been reported for `c1cncc(-c2ccc(-c3n[nH]c4ncc(-c5ccc6c(c5)CC[C@@H](N5C7COCC5C7)CC6)cc34)cc2)c1` in the records?
Result: 6.00 to 7.00

Request: Which value of pIC50 has been reported for `Cc1cncnc1-c1ccc(-c2n[nH]c3ncc(-c4ccc5c(c4)CC[C@@H](N4C6COCC4C6)CC5)cc23)cc1` in the records?
Result: > 7.00
